Where these numbers come from: PubChem BioAssay (NCI)

# Test system: IGROV1 ovarian
# assay: NCI-60 one-dose screen, 48 h (100 = growth as untreated, 0 = no growth, -100 = all killed)
# experimental parameters: 10 µM unless noted
The panel holds about 83,000 compounds, 20% with a hit somewhere; the sample as a whole holds those more often. The source made the active and inactive calls. Rule for the calls: active = growth percent below 10; inactive = the rest.
# growth per record follows

molecule: COc1cccc(C2C(C#N)=C(N)Oc3cc4c(cc32)OCO4)c1 (stereo not given)
growth: 21.6% (inactive)
//
molecule: C[C@@H]1CC2C3CCC4=CC(=O)C=C[C@]4(C)[C@@]3(Cl)[C@@H](O)C[C@]2(C)[C@@]1(OC(=O)c1ccco1)C(=O)CCl (stereo not given in full)
growth: 76.3% (inactive)
//
molecule: CCN(CC)CCNC(=O)n1cc(-c2ccncc2)c(-c2cc(Cl)cc(OC)c2)n1
growth: 86% (inactive)
//
molecule: CSC1=N/C(=C\c2cccc(OCc3ccc(Cl)cc3)c2)C(=O)N1
growth: 86.7% (inactive)
//
molecule: CCN(CC)c1ccc(/C=N/NC(=O)c2ccc(S(C)(=O)=O)cc2)c(O)c1
growth: 21.2% (inactive)

###

# System: OVCAR-3 ovarian
# assay: NCI-60 one-dose screen, 48 h (100 = growth as untreated, 0 = no growth, -100 = all killed)
# experimental parameters: 10 µM unless noted
# Protocol: Growth inhibition of the OVCAR-3 human tumor cell line is measured as a screen for anti-cancer activity. Cells are grown in 96 well plates and exposed to the test compound for 48 hours. Compounds are tested at a single concentration, which is 10^-5 M for most compounds. The reported endpoint is percent growth (GI% or GIPRCNT), where numbers from 0 - 100% represent growth inhibition, and numbers from -100% - 0 represent cell death. For example, a value of 40 represents 60% growth inhibition. […]
About 83,000 compounds went through this panel and 20% of them were active in at least one assay; those are over-represented in the sample as a whole.

molecule: COc1cc2c(=O)n(CCCN(C)C)c3c4cc[nH]c4ncc3c2cc1OC
growth / %: 49.1
--
molecule: O=C1SCN(Cc2ccccc2)CN1Cc1ccccc1
growth / %: 105
--
molecule: COC(=O)c1ccc2c(c1)nc(-c1ccc(Cl)cc1)n2-c1cc(C(C)(C)C)[nH]n1
growth / %: 41.9
--
molecule: COc1ccc(-c2nc(SCCC(C)C)nc(Nc3ccc(C(=O)O)cc3)c2C#N)cc1
growth / %: 97.5
--
molecule: Cc1ccc2c(C)c3c(ccc4ccccc43)c[n+]2c1
growth / %: 53.2
--
molecule: CCS(=O)(=O)Nc1cccc(Nc2c3cccc(C)c3nc3c(C)cccc23)c1OC
growth / %: 47.2
--
molecule: CNC(=O)c1c(NC(=O)c2cccc(C(F)(F)F)c2)sc2c1CCC(=O)C2
growth / %: 3.37
--
molecule: S=C(Nc1ccc(Cl)cc1)Nc1ccc(Cl)cc1 (tested in a mixture with another compound)
growth / %: 5.45
--
molecule: CC(C)[C@@]12C[C@@H](OC(=O)C3CO3)[C@@](C)(O1)[C@@H]1CC[C@@H](C)[C@H]1[C@@H]2OC(=O)/C=C/c1ccccc1 (stereo partly specified)
growth / %: 90.4
--
molecule: Cc1ccsc1C(=O)CC(=O)C(F)(F)C(F)(F)C(F)(F)F
growth / %: 110
--
molecule: C=C1C(=O)O[C@H]2[C@H]1CC/C(COC(=O)NCc1c[nH]c3ccc(OC)cc13)=C\CC[C@@]1(C)O[C@@H]21
growth / %: -84.2
--
molecule: CCOC(=O)C1C(=O)C=C(c2cc(OC)c(OC)c(OC)c2)CC1c1sc(N(C)Cc2ccccc2)nc1Cl (stereo unspecified)
growth / %: 91.6
--
molecule: CCCCSc1ncnc2c1ncn2C1CCCCO1 (stereo unspecified)
growth / %: 109
--
molecule: ClCc1c(Cl)c(Cl)c(Cl)c(CCl)c1Cl
growth / %: -94.5
--
molecule: CN1C(=O)C(C2=NNC(c3ccccc3C(=O)O)C2)C(=O)N(C)C1=O (stereo unspecified)
growth / %: 110
--
molecule: COc1cc(C2CC(c3ccc(Cl)cc3)=NN2C=O)ccc1Oc1ccnc2cc(Cl)ccc12 (stereo unspecified)
growth / %: 73.4
--
molecule: Cc1ccc(Nc2cccc3ccccc23)cc1
growth / %: 89.1
--
molecule: COc1ccc(Cl)cc1Nc1nc(C(F)(F)F)ccc1C(=O)NN
growth / %: 33.6
--
molecule: O=C(O)c1cc2cc(OCc3ccccc3)ccc2[nH]1
growth / %: 102
--
molecule: COc1cc([N+](=O)[O-])cc(OC)c1OC
growth / %: 108
--
molecule: O=[N+]([O-])c1ccc(N/N=C\c2ccc(O)cc2O)nc1
growth / %: 74.8

###

# Test system: SW-620 colon
# assay: NCI-60 one-dose screen, 48 h (100 = growth as untreated, 0 = no growth, -100 = all killed)
# experimental parameters: 10 µM unless noted
# Procedure: Growth inhibition of the SW-620 human tumor cell line is measured as a screen for anti-cancer activity. Cells are grown in 96 well plates and exposed to the test compound for 48 hours. Compounds are tested at a single concentration, which is 10^-5 M for most compounds. The reported endpoint is percent growth (GI% or GIPRCNT), where numbers from 0 - 100% represent growth inhibition, and numbers from -100% - 0 represent cell death. For example, a value of 40 represents 60% growth inhibition. […]
This is part of a sample that, as a whole, favours compounds with a hit. Of some 83,000 tested, about 20% had one in any assay.
Criterion: growth meeting or surpassing 90%. Met: MET. Not met: NOT MET.

molecule: Cn1cnc([N+](=O)[O-])c1S(=O)(=O)Oc1ccccc1
target under test: SW-620 colon
label: NOT MET

molecule: COc1ccc2c(c1)sc1nc(-c3ccccc3)c(-c3cccc4ccccc34)n12
target under test: SW-620 colon
label: NOT MET

molecule: CC(C)c1ccc(-c2cnc3nonc3n2)cc1
target under test: SW-620 colon
label: NOT MET

molecule: COc1ccc(-c2nc3c(c(-c4ccc(Cl)cc4)nn3-c3ccccc3)c(-c3ccc(O)cc3)c2C#N)cc1
target under test: SW-620 colon
label: NOT MET

molecule: CS(=O)(=O)c1ccc(C(=O)N/N=C/c2ccccc2Cl)cc1
target under test: SW-620 colon
label: MET

molecule: CCC1N=C(N)N=C(N)N1c1ccc(Cl)cc1 (stereo not drawn)
target under test: SW-620 colon
label: NOT MET

molecule: CC1(C)CC(=O)c2cc3c(N)c(C(=O)Nc4ccc(Cl)cc4)sc3nc2C1
target under test: SW-620 colon
label: MET

molecule: Cc1ccccc1C1CC(=O)c2ccccc2C1C (stereo not drawn)
target under test: SW-620 colon
label: MET

molecule: CCCCCCCCCCCCCCCCCC(=O)OCCCCCCCCCCCCC
target under test: SW-620 colon
label: MET

molecule: COc1cc(C)c(Cl)cc1C1=NN(c2ccc(S(N)(=O)=O)cc2)C(/C=C/c2ccccc2)C1 (stereo not drawn)
target under test: SW-620 colon
label: NOT MET

molecule: CCCCCCCCCCCCNC(=O)N[C@H](C(=O)N[C@H]1/C=C/CCNC(=O)/C=C/[C@H](C)NC1=O)C(C)C
target under test: SW-620 colon
label: NOT MET

###

# System: T-47D breast
# assay: NCI-60 one-dose screen, 48 h (100 = growth as untreated, 0 = no growth, -100 = all killed)
# experimental parameters: 10 µM unless noted
This is part of a sample that, as a whole, favours compounds with a hit. Of some 83,000 tested, about 20% had one in any assay.
# growth per record follows
assay metric: growth (%)

compound: CCN(CC)c1ccc(/C=C2/NC(=O)NC2=O)cc1
assay metric: growth
unit info: %
experimental result: 16.2
//
compound: CC1=C(O)C(=O)CC1
assay metric: growth
unit info: %
experimental result: 103
//
compound: COc1cc(CN(CCC(O)N2CCCC2=O)Cc2ccc3c(c2)OCO3)cc(OC)c1OC (stereo unspecified)
assay metric: growth
unit info: %
experimental result: 96
//
compound: CCCCCCCCN=C(NCCCCCCCC)SCc1cccc2ccccc12
assay metric: growth
unit info: %
experimental result: -97.5
//
compound: Clc1ccc(C2=NN[C@H](c3cn(-c4ccccc4)nc3-c3ccccc3)C2)cc1
assay metric: growth
unit info: %
experimental result: 46.4
//
compound: CN1CCC2(CC1)N=C(SCC(=O)Nc1cnc3ccccc3c1)C(c1ccc(Br)cc1)=N2
assay metric: growth
unit info: %
experimental result: 10.5
//
compound: COc1ccc(C(=O)N2N=C(c3ccc(F)cc3)CC2c2cn(-c3ccccc3)nc2-c2ccccc2)cc1 (stereo unspecified)
assay metric: growth
unit info: %
experimental result: 50.6
//
compound: CCn1c(Cc2ccccc2Nc2c(Cl)cccc2Cl)nnc1SCC(=O)Nc1ccccc1C(F)(F)F
assay metric: growth
unit info: %
experimental result: 47.6
//
compound: COc1ccc(CNc2c3ccccc3nc3ccccc23)cc1F
assay metric: growth
unit info: %
experimental result: 35
//
compound: CCN(CC)CCNC(=O)n1cc(-c2ccncc2)c(-c2cc(Cl)cc(OC)c2)n1
assay metric: growth
unit info: %
experimental result: 87.3
//
compound: O=C(C(=O)N1CCCC1)c1cn(CCCn2cc(C(=O)C(=O)N3CCCC3)c3cc(Br)ccc32)c2ccc(Br)cc12
assay metric: growth
unit info: %
experimental result: 70.8
//
compound: O=C(Nc1cccc(-n2ccc3c(NC(=O)c4ccccc4)nccc32)c1)c1ccc(Cl)c(Cl)c1
assay metric: growth
unit info: %
experimental result: -55.4
//
compound: c1ccc(CCn2cccc2)nc1
assay metric: growth
unit info: %
experimental result: 94.7
//
compound: Nc1nc(N)c2cc(NCc3ccc(Cl)c(Cl)c3)ccc2n1
assay metric: growth
unit info: %
experimental result: -81.3
//
compound: CC(C)c1ccc2c(c1)CCC1C2CCCC1(C)NCc1ccccc1 (stereo unspecified)
assay metric: growth
unit info: %
experimental result: 12.8
//
compound: CCCCCCCCCCCCCCCCCC1=NCCN1CCO
assay metric: growth
unit info: %
experimental result: 95
//
compound: O=C(CCl)Nc1cc(O)c2c(c1)C(=O)c1cccc(O)c1C2=O
assay metric: growth
unit info: %
experimental result: -76.4
//
compound: Fc1cc(-c2cnc3nonc3n2)c(Cl)cc1Cl
assay metric: growth
unit info: %
experimental result: 63.2
//
compound: COc1ccc(C(=O)OC2C(OC3C(O)COC(O[C@H]4C[C@H]5[C@@H]6CC=C7C[C@@H](O)CC[C@]7(C)[C@H]6CC[C@]5(C)[C@H]4[C@H](C)C(=O)CCC(C)C)C3OC(C)=O)OCC(O)C2O)cc1 (stereo partly specified)
assay metric: growth
unit info: %
experimental result: 2.99
//
compound: CNC(=O)c1c(NC(=O)c2cccc(C(F)(F)F)c2)sc2c1CCC(=O)C2
assay metric: growth
unit info: %
experimental result: -32.8
//
compound: Cn1c(=O)c2c(nc(N/N=C/c3ccccc3Cl)n2C)n(C)c1=O
assay metric: growth
unit info: %
experimental result: 105
//
compound: O=C(c1ccccc1)C1OC1C(=O)c1ccccc1 (stereo unspecified)
assay metric: growth
unit info: %
experimental result: -7.04
//
compound: CCOC(=O)C#Cc1c(C(=O)OCC)nnn1[C@@H]1O[C@H](COC(C)=O)[C@@H](OC(C)=O)[C@H]1OC(C)=O
assay metric: growth
unit info: %
experimental result: 60.2
//
compound: COc1ccc(C2c3cccn3-c3ccccc3N2C(C)=O)cc1 (stereo unspecified)
assay metric: growth
unit info: %
experimental result: 103
//
compound: C[C@@H]1CC2C3CCC4=CC(=O)C=C[C@]4(C)[C@@]3(Cl)[C@@H](O)C[C@]2(C)[C@@]1(OC(=O)c1ccco1)C(=O)CCl (stereo partly specified)
assay metric: growth
unit info: %
experimental result: 97.1
//
compound: COc1ccc(-c2nn(C(=O)NCCN(C)C)cc2-c2ccncc2)cc1Cl
assay metric: growth
unit info: %
experimental result: 37.1
//
compound: O=C(O)C(CCc1ccccc1)NCc1ccccc1 (stereo unspecified)
assay metric: growth
unit info: %
experimental result: 96.3
//
compound: O=C(N/N=C/c1ccc([N+](=O)[O-])cc1)c1ccccc1Nc1ccnc(C(F)(F)F)c1
assay metric: growth
unit info: %
experimental result: 47.2
//
compound: CC(C)CC(=O)C(CCc1ccccn1)C(C)C (stereo unspecified)
assay metric: growth
unit info: %
experimental result: 96.3
//
compound: C=C(c1ccc(C(=O)NCCCn2ccnc2)cc1)c1cc2c(cc1C)C(C)(C)CCC2(C)C
assay metric: growth
unit info: %
experimental result: -16.9
//
compound: CCOC(=O)C1OC2(CCCC2)OC1C(=O)OCC (stereo unspecified)
assay metric: growth
unit info: %
experimental result: 98.4
//
compound: N/N=C(\C(=N\N)c1ccccc1)c1ccccc1
assay metric: growth
unit info: %
experimental result: 93
//
compound: C(=Nc1ccc(-c2ccc(N=Cc3ccccc3)cc2)cc1)c1ccccc1
assay metric: growth
unit info: %
experimental result: 107
//
compound: Cc1ccc(C)c2c1SC1=NNC(Oc3ccc(Cl)cc3)=C(C#N)C(=N)N12
assay metric: growth
unit info: %
experimental result: 84.4
//
compound: Brc1ccsc1Br
assay metric: growth
unit info: %
experimental result: 95.4
//
compound: CCCCCCCCCCCCCCCC1=NC(C)(C)CN1C(C)C
assay metric: growth
unit info: %
experimental result: -11.2
//
compound: O=C(/C=C/c1ccc(F)cc1)N1CCN(C(=O)/C=C/c2ccc(C(F)(F)F)cc2)CC1
assay metric: growth
unit info: %
experimental result: 113
//
compound: C=C(C)[C@@H]1CC[C@]2(C(=O)O)CC[C@]3(C)[C@H](CC[C@@H]4[C@@]5(C)C[C@@H](CC#Cc6ccc(C(C)=O)s6)[C@H](O)C(C)(C)[C@@H]5CC[C@]43C)[C@@H]12
assay metric: growth
unit info: %
experimental result: 51.5
//
compound: CCc1c(C)c2ccc(O)c(-c3cc(-c4ccccc4)c(C#N)c(=O)[nH]3)c2oc1=O
assay metric: growth
unit info: %
experimental result: 85.9
//
compound: COCc1nc(NS(=O)(=O)c2ccc(N)cc2)nc(C)c1Br
assay metric: growth
unit info: %
experimental result: 96.1
//
compound: Cn1c(-c2ccccc2)cc(=O)n1-c1ccccc1
assay metric: growth
unit info: %
experimental result: 102
